Please provide measured EC50 for the entries that follow.
# Test system: HeLa-ACE2 cells
# Assay summary: cells
# Measurement parameters: Homo sapiens, HeLa-ACE2, read-out: HeLa-ACE2 cell count EC50 GeoMean
Where a name gives a salt, the structure may show the parent alone.

Solved entries (count: 2):
# Molecule, EC50
rows = [
    ("Nc1nc(Nc2ccc3c(c2)CC[C@@H](N2CCCC2)CC3)nn1-c1cc2c(nn1)-c1ccccc1CCC2", "> 9.15 µM"),
    ("Cc1c(O)cccc1C(=O)N[C@@H](CSc1ccccc1)[C@H](O)CN1C[C@H]2CCCC[C@H]2C[C@H]1C(=O)NC(C)(C)C [Nelfinavir mesylate]", "> 9.6 µM"),
]

Please give EC50, item by item, for the list that follows.
1. C[C@H]1O[C@@H](O[C@H]2[C@@H](O)C[C@H](O[C@H]3[C@@H](O)C[C@H](O[C@H]4CC[C@@]5(C)[C@H](CC[C@@H]6[C@@H]5C[C@@H](O)[C@]5(C)[C@@H](C7=CC(=O)OC7)CC[C@]65O)C4)O[C@@H]3C)O[C@@H]2C)C[C@H](O)[C@@H]1O
2. O=c1nc(NO)ccn1[C@@H]1O[C@H](CO)[C@@H](O)[C@H]1O [N-hydroxycytidine]
3. COc1cc(-n2cnc3cc(-c4ccc(Cl)cc4)sc3c2=O)ccc1OCCN1CCCC1
4. COc1ccc(C[C@H](N)C(=O)N[C@H]2[C@@H](O)[C@H](n3cnc4c(N(C)C)ncnc43)O[C@@H]2CO)cc1 [Puromycin - cytotoxicity control]

Found:
1. 0.325 µM
2. > 9.59 µM
3. > 7.88 µM
4. 1.55 µM

###

I'd appreciate it if you could supply HeLa-ACE2 uninfected cytotoxicity Sinf Average values for the items below.
# Tested on: HeLa-ACE2 cells
# Assay summary: Uninfected HeLa-ACE2 24 h live/dead cytotoxicity counter screen
# Assay type: cell-based, human
# Measurement parameters: curve plateau at infinite concentration
One number for each entry, in %.

Below, each entry is followed by its recorded HeLa-ACE2 uninfected cytotoxicity Sinf Average result.
# Molecule, Readout unit, Measured result
rows = [
    ("CCC(CC)COC(=O)[C@H](C)NP(=O)(OC[C@H]1O[C@@](C#N)(c2ccc3c(N)ncnn23)[C@H](O)[C@@H]1O)Oc1ccccc1 (some centres unmarked) [Remdesivir - control]", "%", -98),
    ("COc1ccc(C[C@H](N)C(=O)N[C@H]2[C@@H](O)[C@H](n3cnc4c(N(C)C)ncnc43)O[C@@H]2CO)cc1 [Puromycin - cytotoxicity control]", "%", -100),
    ("O=C(CCCN1CCN(c2ccc(F)cc2)CC1)NC1c2ccccc2CSc2ccccc21 (centres unmarked) [Monatepil]", "%", -100),
    ("CCN(CC)Cc1cc(Nc2ccnc3cc(Cl)ccc23)ccc1O", "%", -89),
]

Now for the molecule whose HeLa-ACE2 uninfected cytotoxicity Sinf Average we want.
Note to self: HeLa-ACE2 uninfected cytotoxicity Sinf Average recorded for CNC(=O)c1cc(Oc2ccc(NC(=O)Nc3ccc(Cl)c(C(F)(F)F)c3)cc2)ccn1 was -99

###

Please respond with reported EC50 for every item in the list.
# Test system: HeLa-ACE2 cells
# Assay summary: cells
# Measurement parameters: Homo sapiens, HeLa-ACE2, read-out: HeLa-ACE2 cell count EC50 GeoMean
Counter-ions that a name gives are not always drawn.

A selection of reference data follows.
# Molecule, Assayed target, EC50
rows = [
    ("COc1ccc2c(c1)[C@]1(C[C@H]1c1ccc3c(/C=C/c4ccc(CN5C[C@@H](C)O[C@@H](C)C5)cc4)n[nH]c3c1)C(=O)N2", "HeLa-ACE2 cells", "> 0.117 µM"),
    ("CC(C)Oc1ccc(-c2nc(-c3cccc4c3CC[C@@H]4NCCO)no2)cc1C#N", "HeLa-ACE2 cells", "> 8.74 µM"),
]

Report EC50 for every entry below.
1. CCCCC1CCc2cc(O)cc3c(CCN4CCN(c5cc(C)ccn5)CC4)c(C)n1c23 (stereo not drawn)
2. COc1cc2c(Nc3ccc(Cl)c(Cl)c3F)ncnc2cc1OC[C@@H]1C[C@@H]2CN(C)C[C@@H]2C1

Found:
> 9.59 µM
> 8.16 µM

Count: 5. Required value per item: EC50.
1. CCN(CC)CCCNc1ccnc2cc(Cl)ccc12
2. OC(CNCC(O)C1CCc2cc(F)ccc2O1)C1CCc2cc(F)ccc2O1 (stereo not drawn) [Nebivolol HCl]
3. NC1(c2ccc(-c3nc4ccn5c(=O)[nH]nc5c4cc3-c3ccccc3)cc2)CCC1
4. Nc1ncnc2c1nc(Cl)n2[C@@H]1O[C@H](CO)[C@@H](O)[C@H]1O
5. CNC(=O)c1cc(Oc2ccc(NC(=O)Nc3ccc(Cl)c(C(F)(F)F)c3)cc2)ccn1

Found:
["> 9.6 µM", "> 9.12 µM", "> 9.59 µM", "> 9.59 µM", "> 8.31 µM"]

###

# Test system: HEK293T
# Assay summary: HEK293T 72 h CellTiter-Glo cytotoxicity
# Measurement parameters: 72 h
Measurement kind: HEK293T 72-hour cytotoxicty Sinf Average (%)
Answers are plain numbers, in %.

Use these answered entries as a reference point.
# Molecule, Assayed target, Readout unit, Measured result
rows = [
    ("COC(=O)[C@H]1[C@H]2C[C@@H]3c4[nH]c5cc(OC)ccc5c4CCN3C[C@H]2C[C@@H](OC(=O)c2cc(OC)c(OC)c(OC)c2)[C@@H]1OC [Reserpine]", "HEK293T", "%", -100),
    ("COc1cc(-n2cnc3cc(-c4ccc(Cl)cc4)sc3c2=O)ccc1OCCN1CCCC1 [GW-803430]", "HEK293T", "%", -101),
    ("OCCN1CCN(CC/C=C2/c3ccccc3Sc3ccc(Cl)cc32)CC1 [Zuclopenthixol]", "HEK293T", "%", -100),
]

Please state, for each entry, its recorded HEK293T 72-hour cytotoxicty Sinf Average.
1. C=CC(=O)Nc1cc(Nc2nccc(-c3cn(C)c4ccccc34)n2)c(OC)cc1N(C)CCN(C)C [AZD-9291/Osimertinib]
2. NC1(c2ccc(-c3nc4ccn5c(=O)[nH]nc5c4cc3-c3ccccc3)cc2)CCC1 [MK-2206]
3. COc1cc2c(Nc3ccc(Cl)c(Cl)c3F)ncnc2cc1OC[C@@H]1C[C@@H]2CN(C)C[C@@H]2C1 [Tesevatinib, XL647, Kadmon Corporation]

Found:
1. -103
2. -102
3. -102

###

I'd be grateful if you could share measured EC50 for these entries.
# Test system: SARS-CoV-2
# Assay summary: microbe, parasite or virus in culture
# Format: cell-based
# Measurement parameters: Severe acute respiratory syndrome coronavirus 2, HeLa-ACE2; read-out: HeLa-ACE2 TOA CoV-2 EC50 GeoMean
Structures can show the parent of a compound that is named as a salt.
Give bare numbers, in nM.

# Molecule, Measured result
data = [
    ("Nc1ncnc2c1nc(Cl)n2[C@@H]1O[C@H](CO)[C@@H](O)[C@H]1O", 1070),
    ("CC(C)(C)Cn1c(N)nc2ccc(-c3[nH]c(C(C)(C)C)nc3-c3ccc(F)cc3)nc21 [Ralimetinib mesylate/LY2228820, Ralimetinib mesylate]", 787),
]

Consider now this further molecule.
The reported EC50 of the molecule COc1ccc(C[C@H](N)C(=O)N[C@H]2[C@@H](O)[C@H](n3cnc4c(N(C)C)ncnc43)O[C@@H]2CO)cc1 [Puromycin - cytotoxicity control] was 316

###

# Assay summary: in vitro
# Measurement parameters: human
Residues, ends and D or L forms follow the SMILES beside them. *: point of attachment. Cbz = O=C(OCc1ccccc1)*; CHN2 = [N-]=[N+]=C*
Give measured CC50 at 72 h for each item. Keep answers brief.

Please go through the list and note CC50 at 72 h for each compound.
1. CCOC(=O)[C@@H]1O[C@H]1C(=O)N[C@@H](CC(C)C)C(=O)N1CCN(Cc2ccc(OC)c(OC)c2OC)CC1
2. CC(C)C(=O)OC[C@H]1O[C@@H](n2ccc(NO)nc2=O)[C@H](O)[C@@H]1O

Found:
> 39.8 µM
> 39.8 µM

Reported CC50 at 72 h of CC(C)CC(NC(=O)OCc1ccccc1)C(=O)NC(C(=O)NCC(=O)C=[N+]=[N-])C(C)C (stereo not drawn) [Z LVG CHN2] (Cbz-Leu-Val-Gly-CHN2; configuration not given here) : > 39.8 µM

###

# Test system: HeLa-ACE2 cells
# Assay summary: Uninfected HeLa-ACE2 24 h live/dead cytotoxicity counter screen
# Type: cell-based, human
# Measurement parameters: Sinf average of the curves
Answer each item with its documented HeLa-ACE2 uninfected cytotoxicity Sinf Average (%).
Numbers only, in %.

Answered examples (2):
# Compound, Measured result
rows = [
    ("O[C@@H]1CO[C@H]2[C@@H]1OC[C@H]2Oc1nc2nc(-c3ccc(-c4ccccc4)cc3)c(Cl)cc2[nH]1", -100),
    ("CN(C)C(C(=O)Nc1ccc2c(=O)[nH]ccc2c1)c1ccsc1 (stereo not drawn)", -100),
]

Please look at the following compound next.
The compound listed as N#Cc1cccc(C(C(=O)NCC(c2ccccc2)c2ccccc2)N(CCc2c[nH]cn2)C(=O)c2ccccc2C(=O)c2ccccc2)c1 (stereo not drawn) has a reported HeLa-ACE2 uninfected cytotoxicity Sinf Average (%) of -67
